Format: in vivo, human
assay conditions: substrate + enzalutamide 160 mg/day vs substrate + placebo-to-match; n = 14
assay metric: AUC∞ geometric mean ratio test/reference (90 % CI)

Kindly note the recorded AUC∞ geometric mean ratio test/reference (90 % CI) for Cc1ncc2n1-c1ccc(Cl)cc1C(c1ccccc1F)=NC2 [midazolam, reference compound] , which is 0.14 (0.12–0.17)

Kindly note the recorded AUC∞ geometric mean ratio test/reference (90 % CI) for COc1ccc2[nH]c([S+]([O-])Cc3ncc(C)c(OC)c3C)nc2c1 (stereo not shown) [omeprazole, reference compound] , which is 0.30 (0.24–0.36)

Kindly note the recorded AUC∞ geometric mean ratio test/reference (90 % CI) for CCc1ccc(CCOc2ccc(CC3SC(=O)NC3=O)cc2)nc1 (stereo not shown) [pioglitazone, reference compound] , which is 1.20 (0.98–1.47)

Kindly note the recorded AUC∞ geometric mean ratio test/reference (90 % CI) for COc1ccc2nc([S+]([O-])Cc3ncc(CO)c(OC)c3C)[nH]c2c1 (stereo not shown) [5-Hydroxy-omeprazole] , which is 0.46 (0.39–0.53)

Kindly note the recorded AUC∞ geometric mean ratio test/reference (90 % CI) for CC(=O)C[C@@H](c1ccccc1)c1c(O)c2ccc(O)cc2oc1=O [7-Hydroxy-S-warfarin] , which is 0.47 (0.35–0.63)

Kindly note the recorded AUC∞ geometric mean ratio test/reference (90 % CI) for CC(O)c1ccc(CCOc2ccc(CC3SC(=O)NC3=O)cc2)nc1 (stereo not shown) [Hydroxy-pioglitazone (M-IV), Hydroxy-pioglitazone] , which is 0.63 (0.52–0.77)

Kindly note the recorded AUC∞ geometric mean ratio test/reference (90 % CI) for OCc1ncc2n1-c1ccc(Cl)cc1C(c1ccccc1F)=NC2 [1-Hydroxy-midalozam, 1-hydroxy-midazolam] , which is 0.24 (0.20–0.28)
